Hello, the source for this data is paper PMC5567048, in case you need it.

- SUBJECT_OF_TEST: C-BgsA (Sinorhizobium meliloti)
- Construct: gene SM_b20391
- Sequence (Q92WG2 526-664): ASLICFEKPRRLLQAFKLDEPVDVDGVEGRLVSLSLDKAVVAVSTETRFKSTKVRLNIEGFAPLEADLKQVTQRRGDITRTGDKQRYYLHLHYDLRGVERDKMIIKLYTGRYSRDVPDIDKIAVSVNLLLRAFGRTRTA
- PROTOCOL_TEXT: SPR solution competition against immobilised […]′-AHC-c-di-GMP chip
- Format: binding
MEASURED_QUANTITY: EC50 (nM)
# value in nM; strip the unit string

**Q:** Suppose we examine the molecule Nc1nc2c(ncn2[C@@H]2O[C@@H]3CO[P@](=O)(O)O[C@H]4[C@@H](O)[C@H](n5cnc6c(=O)[nH]c(N)nc65)O[C@@H]4CO[P@](=O)(O)O[C@H]3[C@H]2O)c(=O)[nH]1 [c-di-GMP] ; what EC50 value has been reported?
**A:** 270

----------
- SUBJECT_OF_TEST: C-BgsA (Sinorhizobium meliloti, UniProt Q92WG2, H615A)
- PROTOCOL_TEXT: SPR solution competition against immobilised […]′-AHC-c-di-GMP chip
MEASURED_QUANTITY: EC50 (µM)
Return type: number; implicit unit µM.

**Q:** Looking for the measured EC50 of Nc1nc2c(ncn2[C@@H]2O[C@@H]3CO[P@](=O)(O)O[C@H]4[C@@H](O)[C@H](n5cnc6c(=O)[nH]c(N)nc65)O[C@@H]4CO[P@](=O)(O)O[C@H]3[C@H]2O)c(=O)[nH]1 , can you help?
**A:** 292

----------
- SUBJECT_OF_TEST: C-BgsA (Sinorhizobium meliloti, UniProt Q92WG2, R656A)
- PROTOCOL_TEXT: SPR solution competition against immobilised […]′-AHC-c-di-GMP chip
MEASURED_QUANTITY: EC50 (nM)
Number in nM, nothing else.

**Q:** For the compound Nc1nc2c(ncn2[C@@H]2O[C@@H]3CO[P@](=O)(O)O[C@H]4[C@@H](O)[C@H](n5cnc6c(=O)[nH]c(N)nc65)O[C@@H]4CO[P@](=O)(O)O[C@H]3[C@H]2O)c(=O)[nH]1 , what EC50 is on record?
**A:** 400

----------
- SUBJECT_OF_TEST: C-BgsA (Sinorhizobium meliloti, UniProt Q92WG2, D608A)
- PROTOCOL_TEXT: SPR solution competition against immobilised […]′-AHC-c-di-GMP chip
MEASURED_QUANTITY: EC50 (nM)
A number alone suffices; assume nM.

**Q:** Reported EC50 for Nc1nc2c(ncn2[C@@H]2O[C@@H]3CO[P@](=O)(O)O[C@H]4[C@@H](O)[C@H](n5cnc6c(=O)[nH]c(N)nc65)O[C@@H]4CO[P@](=O)(O)O[C@H]3[C@H]2O)c(=O)[nH]1 [c-di-GMP] : what is it?
**A:** 270
